Test system: Human NGN3 (HUES 8-pancreatic progenitor population)
Assay: High-content screen 1 and efficacy curve: NGN3+ cells by immunofluorescence (Cellomics)
Type: cell-based
Conditions: Homo sapiens, 144 h; HUES 8-pancreatic progenitor population, six days, FIG. 1D; read-out: EC50, total number of NGN3+ cells
METRIC NAME: EC50 (µM)
Numbers only; they are read as µM.

Please state recorded EC50 (tested on Human NGN3 (HUES 8-pancreatic progenitor population)) of "O=C1NC(=O)C(c2cn(CCCn3ccnc3)c3ccccc23)=C1Nc1ccccc1" 7.8

FYI, the data here is from patent US10941384B2.
